Documented IC50 across a set of molecules
Target: UniProtKB O95342
observable: IC50

1) C[C@H](NCc1ccc(OCc2ccccc2F)cc1)C(N)=O [RALFINAMIDE]
175 µM
2) CC(=O)Nc1ccccc1 [ACETANILIDE]
> 1000 µM
3) CN(C)C(=O)Oc1ccc[n+](C)c1 [PYRIDOSTIGMINE BROMIDE]
> 1000 µM
4) NS(=O)(=O)c1cc(Cl)c(Cl)c(S(N)(=O)=O)c1 [DICHLORPHENAMIDE]
> 919 µM
5) CCCOc1ccc2nc(NC(=O)OC)[nH]c2c1 [OXIBENDAZOLE]
> 1000 µM
6) O=C(O)c1cc2sccc2n1Cc1ccc(Cl)c(Cl)c1
13.7 µM

* * *

Target: UniProtKB O95342
Assay type: ADME
observable: IC50

1. Cc1n[nH]c(C)c1Cc1sc2c(c1C(=O)N1C[C@H](O)CO1)c(=O)n(C)c(=O)n2C(C)C
703 µM
2. Cc1ccccc1OCC(O)CO (stereo not given)
> 1000 µM
3. O=C1c2ccccc2CN2C(=O)c3ccccc3CN12
> 1000 µM
4. Cc1cc(=O)n(-c2ccccc2)n1C [ANTIPYRINE]
> 1000 µM
5. C[C@@](O)(CS(=O)(=O)c1ccc(F)cc1)C(=O)Nc1ccc(C#N)c(C(F)(F)F)c1 [(S)-BICALUTAMIDE]
< 10 µM

* * *

# pIC50 measurements, system: Bile salt export pump (Homo sapiens)
pIC50: −log10 of the molar value.
observable: pIC50

1) O=C1CCC(N2C(=O)c3ccccc3C2=O)C(=O)N1 (stereo not drawn) [THALIDOMIDE]
< 3.00
2) CCCCOc1cc(C(=O)OCCN(CC)CC)ccc1N [BENOXINATE]
3.51
3) C[N+]1(C)CCCC(OC(=O)C(O)(c2ccccc2)c2ccccc2)C1 (stereo not drawn) [MEPENZOLATE BROMIDE]
< 3.00
4) COc1c(N2C[C@@H]3CCCN[C@@H]3C2)c(F)cc2c(=O)c(C(=O)O)cn(C3CC3)c12 [MOXIFLOXACIN]
< 3.00
5) CC1(C)O[C@@H]2[C@@H](CO[C@@]3(COS(N)(=O)=O)OC(C)(C)O[C@@H]23)O1 [TOPIRAMATE]
< 3.00
6) CC(=O)O[C@H]1C[C@@]2(C)[C@@H](C[C@@H](O)[C@H]3[C@@]4(C)CC[C@@H](O)[C@@H](C)[C@@H]4CC[C@@]32C)/C1=C(\CCC=C(C)C)C(=O)O [FUSIDATE SODIUM]
> 5.00
7) C=CC1CN2CCC1CC2C(O)c1ccnc2ccccc12 (stereo not drawn)
< 3.00
8) CC(CCc1ccccc1)NC(C)C(O)c1ccc(O)cc1 (stereo not drawn) [NYLIDRIN]
3.55

* * *

*1 amine or outer side, *2 acyl side, *3 side chain or, on linkers, in order; H or OH if unused. Where a SMILES comes first, the peptide text is derived from it. Bridges are numbered along the chain shown (N, C = ends). [ ]: non-standard residue; d: D form. The star is where a group is joined. ξ: configuration not given here. X2 = N=C1NC(O)C[C@H]([C@H](N[*:1])C(=O)[*:2])N1; ΔAla(Z-3-ureido) = NC(=O)N/C=C(\N)C(=O)O; ξβ3hOrn = NCCCC(N)CC(=O)*; Dap = NC[C@H](N)C(=O)O
# IC50 measurements, system: Bile salt export pump (Homo sapiens, UniProt O95342)
observable: IC50

1) CN[C@H]1CC[C@@H](c2ccc(Cl)c(Cl)c2)c2ccccc21 [SERTRALINE]
29.3 µM
2) CCc1cc(C(N)=S)ccn1 [ETHIONAMIDE]
> 1000 µM
3) NS(=O)(=O)c1cc2c(cc1C(F)(F)F)NC(Cc1ccccc1)NS2(=O)=O (stereo not drawn) [BENDROFLUMETHIAZIDE]
69.6 µM
4) OCCN1CCN(CCCN2c3ccccc3Sc3ccc(Cl)cc32)CC1 [PERPHENAZINE]
34.8 µM
5) CCCN1CCCC[C@H]1C(=O)Nc1c(C)cccc1C [ROPIVACAINE]
646 µM
6) O=C(Oc1ccccc1C(=O)O)c1ccccc1O [SALSALATE]
> 1000 µM
7) CCOC(=O)[C@H](CCc1ccccc1)N[C@@H](C)C(=O)N1N=C(C(C)(C)C)S[C@H]1C(=O)O [UTIBAPRIL]
< 13.5 µM
8) COc1cc(NC(C)CCCN)c2ncccc2c1 (stereo not drawn) [PRIMAQUINE]
53.1 µM
9) COc1ccc(Nc2ccn(-c3ccccc3)n2)cc1
23 µM
10) CC1=C(C/C=C(\C)CCCC(C)CCCC(C)CCCC(C)C)C(=O)c2ccccc2C1=O (stereo not drawn)
> 1000 µM
11) CCOC(=O)c1ncn2c1CN(C)C(=O)c1cc(F)ccc1-2 [FLUMAZENIL]
> 733 µM
12) CCOC(=O)C1=C(COCCN)NC(C)=C(C(=O)OC)C1c1ccccc1Cl (stereo not drawn) [AMLODIPINE]
16 µM
13) N=C1NC(O)C[C@H]([C@@H]2NC(=O)/C(=C/NC(N)=O)NC(=O)[C@H](CO)NC(=O)[C@H](CO)NC(=O)[C@@H](NC(=O)CC(N)CCCN)CNC2=O)N1 (stereo partly drawn) (ξβ3hOrn-[Dap]SS[ΔAla(Z-3-ureido)][X2]; lactam 1-C)
> 1000 µM
14) NCCc1c[nH]cn1 [HISTAMINE]
> 1000 µM
15) c1ccc2c(c1)sc1ccccc12 [DIBENZOTHIOPHENE]
388 µM
16) Nc1ccc([As](=O)(O)O)cc1
> 1000 µM
17) NS(=O)(=O)c1cc2c(cc1C(F)(F)F)NCNS2(=O)=O [HYDROFLUMETHIAZIDE]
> 1000 µM
18) CC(C)(C)C(=O)Oc1ccc(S(=O)(=O)Nc2ccccc2C(=O)NCC(=O)O)cc1
142 µM
19) CCc1cccc(C)c1CNC1=C2NC(C)=C(C)N2CC(C(N)=O)=C1
< 10 µM
20) C[C@H](CC(=O)Nc1c(Cl)ccc2nc(N3CC[C@H](N)C3)ccc12)c1ccccc1
< 27 µM
21) N=C(N)NCCN1CCCCCCC1 [GUANETHIDINE]
> 1000 µM
22) CNCC(O)c1ccc(O)cc1 (stereo not drawn) [OXEDRINE]
> 1000 µM
23) CN1CC(=O)N=C1NC(=O)Nc1cccc(Cl)c1 [FENOBAM ANHYDROUS]
> 1000 µM
24) CC(C)(Oc1ccc(CCNC(=O)c2ccc(Cl)cc2)cc1)C(=O)O [BEZAFIBRATE]
181 µM
25) CCCNC(C)(C)COC(=O)c1ccccc1 [MEPRYLCAINE]
> 1000 µM
26) COc1cc2nc(N3CCN(C(=O)c4ccco4)CC3)nc(N)c2cc1OC [PRAZOSIN]
172 µM
27) COc1ccc(OC)c(C(O)C(C)N)c1 (stereo not drawn) [METHOXAMINE]
> 1000 µM
28) CCN(CC)C(=O)c1ccc(C(=C2CCNCC2)c2ccccc2)cc1
106 µM
29) CC(C(=O)O)c1ccc(-c2ccccc2)c(F)c1 (stereo not drawn) [FLURBIPROFEN]
725 µM
30) O=C(O)c1cc2c(OCCCO)cccc2n1Cc1ccc(Cl)c(Cl)c1
< 14 µM
31) O=C(O)Cc1ccccc1Nc1c(Cl)cccc1Cl [DICLOFENAC]
65 µM
32) O=C(O)CCCCC1CCSS1 (stereo not drawn) [LIPOIC ACID, ALPHA]
> 1000 µM
33) C[C@H](Oc1ccc(C(F)(F)F)cc1-c1ccc(S(C)(=O)=O)c(C(F)(F)F)c1)C(=O)O
35.8 µM
34) CN(C)CC/C=C1/c2ccccc2Sc2ccc(Cl)cc21 [CHLORPROTHIXENE]
27.5 µM
35) COC(=O)C1=C(C)NC(C)=C(C(=O)OC)C1c1ccccc1[N+](=O)[O-] [NIFEDIPINE]
18.7 µM
36) CC(=O)O[C@]1(C(C)=O)CC[C@H]2[C@@H]3C=C(C)C4=CC(=O)CC[C@]4(C)[C@H]3CC[C@@]21C [MEGESTROL ACETATE]
< 10 µM
37) C[C@@H]1C[C@H]2[C@@H]3C[C@H](F)C4=CC(=O)C=C[C@]4(C)[C@@]3(F)[C@@H](O)C[C@]2(C)[C@@]1(O)C(=O)CO [FLUMETHASONE]
68.5 µM
38) Clc1ccc(COC(Cn2ccnc2)c2ccc(Cl)cc2Cl)c(Cl)c1 (stereo not drawn) [MICONAZOLE]
< 10 µM

Hey, just so you know, these numbers are from ChEMBL document CHEMBL4017441.
